These measurements were taken from patent EP4342530A1.

# assay method text: Blood-brain-barrier permeability in mice after IV administration
# conditions used: male, CD1 (ICR), mouse, plasma, intravenous, 3 mg/kg
measured property: concentration at 0.5 h
// return the numeric value with its unit appended

Entry CC(C)(C)CC[C@H](NCc1ccc2c(c1)COCC2)C(=O)O — recorded concentration at 0.5 h = 292 ng/mL

====

# assay method text: Kpuu determination in the dog (plasma and CSF time course after oral capsule)
# Assay type: in vivo, male beagle dog
# conditions used: male, beagle, plasma, 20 mg/kg oral capsule, 12 h, read-out: Plasma concentration
measured property: concentration at 12 h (ng/mL)
One number for each entry, in ng/mL.

So for CC(C)(C)CC[C@H](NCc1ccc2c(c1)COCC2)C(=O)O [Example 3] , the logged concentration at 12 h turned out to be 390
